Exercise: for every item that follows, state its recorded Percent Effect.
System: Plasmodium falciparum
Assay: Calibr Malaria Delayed Death Assay SOP
Assay type: functional, organism-based
Design: scale not given: in the data most compounds retested in dose-response had high values
Settings: concentration 4.99e-06 (unit not given; other assays of the set use mol/L)
The whole screen tested about 38,000 compounds, of which about 1,200 (3.2%) showed an effect of 50% or more. The median lay at about -58%. The list comes from a sample in which strong results are over-represented; it also holds close analogues and randomly drawn compounds.
Numbers only, in %.

// below: answered compounds
[[record]]
compound = "O=C(c1ccc(F)cc1)N1CCOC(c2nc(-c3ncccn3)no2)C1 (stereo unspecified)"
reported_value = -155.2

[[record]]
compound = "CN1CCN(c2ccc(NC(=O)c3ccccn3)c(C(F)(F)F)c2)CC1"
reported_value = -41.85

[[record]]
compound = "O=C(c1ccccn1)N1CCc2ncnc(-c3ccncc3)c2CC1"
reported_value = -17.27

[[record]]
compound = "c1csc(COC[C@H]2CCC[C@]23CN(Cc2ccoc2)CCO3)n1"
reported_value = 34.38

[[record]]
compound = "Cn1ccnc1CN1CCC(Cn2cc(-c3ccncc3)nn2)CC1"
reported_value = -74.11


For every item below, please supply its Percent Effect.
1. N#Cc1ccc(NCCCN2C(=O)COc3ccccc32)nc1
2. N#Cc1c(Cl)nsc1NCCCN1C(=O)COc2ccccc21
3. CN1CCN(c2ccc(NC(=O)c3cccs3)c(C(F)(F)F)c2)CC1
4. Cc1nc2c(c(NC(C)c3nnn[nH]3)n1)Cc1ccccc1OC2 (stereo unspecified)
5. Cc1nc(N(C)C)nc(NCCc2ccccn2)c1C

1: -38.04; 2: 55.67; 3: 73.25; 4: -22.04; 5: -11.2

I have this compound here, Cc1nn(C)c(C)c1CN(C)C(C(=O)O)c1ccc(F)cc1F (stereo unspecified) , and I need its recorded Percent Effect.
-28.09

* * *

Tested on: Plasmodium falciparum
Test: Calibr Malaria Delayed Death Assay SOP
Type: functional, organism-based
Set-up: scale not given: in the data most compounds retested in dose-response had high values
Settings: concentration 4.99e-06 (unit not given; other assays of the set use mol/L)
The whole screen tested about 38,000 compounds, of which about 1,200 (3.2%) showed an effect of 50% or more. The median lay at about -58%. What follows is part of a selection rich in strong results, with near analogues and random picks from the rest.
Please note: Percent Effect exactly at -50% is 0. Only values below -50% get 1.

Worked set:
[[record]]
compound = "CC(Cn1cccn1)NCc1nc(-c2cccs2)no1 (stereo unspecified)"
assigned_category = 1

[[record]]
compound = "CCOCC1c2c(ncn2C)CCN1C(=O)c1cnc(C)cn1.O=C(O)C(F)(F)F (stereo unspecified)"
assigned_category = 1


Strictly below -50%: is that where Percent Effect of Cn1ccnc1CN1CCN(CC(=O)NCc2ccccc2F)CC1 sits?
0

* * *

System: Plasmodium falciparum
Test: Calibr Malaria Delayed Death Assay SOP
Type: functional, organism-based
Design: scale not given: in the data most compounds retested in dose-response had high values
Conditions: concentration 4.99e-06 (unit not given; other assays of the set use mol/L)
In all, about 38,000 compounds went through this assay and about 1,200 (3.2%) showed an effect of 50% or more. The median lay at about -58%. What follows is part of a selection rich in strong results, with near analogues and random picks from the rest.
Exercise: for every item that follows, state its recorded Percent Effect.
One number for each entry, in %.

// below: answered compounds
[[record]]
compound = "CN(Cc1cc(Br)cs1)Cc1nnsc1Cl"
reported_value = -124.6

[[record]]
compound = "Cc1nn(C)c(C)c1CCC(=O)OCC(=O)N1CCc2sccc2C1"
reported_value = -33.28

[[record]]
compound = "O=C1c2ccccc2C(=O)N1CC(O)Cn1nc(-c2cccs2)oc1=O (stereo unspecified)"
reported_value = 1.705

[[record]]
compound = "COCCN1CC[C@H](OC)[C@@H]1Cc1ccccc1.O=C(O)C(F)(F)F"
reported_value = 62.78

[[record]]
compound = "CO[C@H]1CCN(Cc2ccoc2)C[C@@H]1Cc1ccccc1.O=C(O)C(F)(F)F"
reported_value = 66.03


For every item below, please supply its Percent Effect.
1. CO[C@@H]1CCN(Cc2ccoc2)C[C@@H]1Cc1ccccc1.O=C(O)C(F)(F)F
2. CC(C)(C)OC(=O)N1CCCN(c2nnc(Br)s2)CC1
3. COCCN1CC[C@@H](OC)[C@@H]1Cc1ccccc1.O=C(O)C(F)(F)F
4. Cc1nn(C)c(C)c1CN1CCNCC1
5. CC1=NOC(C(=O)N(C)CCCn2nc(C)cc2C)C1 (stereo unspecified)
6. Cc1cc(C)n(CCCN(C)C(=O)C2COc3ccccc3C2)n1 (stereo unspecified)

1. 88.6
2. -110
3. 1.708
4. -151.9
5. -92.45
6. -44.86

* * *

System: Plasmodium falciparum
Experiment: Calibr Malaria Delayed Death Assay SOP
Assay type: functional, organism-based
Parameters: scale not given: in the data most compounds retested in dose-response had high values
Conditions: concentration 4.99e-06 (unit not given; other assays of the set use mol/L)
Among all 38,000 compounds or so, about 1,200 (3.2%) showed an effect of 50% or more. The median lay at about -58%. The sample holds strong results, similar compounds and a random draw of the others, so the mix is not that of the screen.
Exercise: for every item that follows, state its recorded Percent Effect.
One number for each entry, in %.

// below: answered compounds
[[record]]
compound = "CCN(CC)C(=O)C1CCCN(CC(=O)Nc2c(C)nn(CC)c2C)C1 (stereo unspecified)"
system_under_test = "Plasmodium falciparum"
measured_parameter = "Percent Effect"
reported_value = -43.93

[[record]]
compound = "Cc1cc(C)c2cc(CNC(C)C)c3nn(C)c(=O)n3c2c1"
system_under_test = "Plasmodium falciparum"
measured_parameter = "Percent Effect"
reported_value = 20.42

[[record]]
compound = "CC(C)CCn1cc(C(=O)NC2CCS(=O)(=O)C2)c2ccccc2c1=O (stereo unspecified)"
system_under_test = "Plasmodium falciparum"
measured_parameter = "Percent Effect"
reported_value = -89.43

[[record]]
compound = "Cc1ccc(CNC(=O)c2cc(C)n(C)n2)o1"
system_under_test = "Plasmodium falciparum"
measured_parameter = "Percent Effect"
reported_value = -43.25

[[record]]
compound = "CCOCCCNCc1cc2c(C)cc(C)cc2n2c(=O)n(C)nc12"
system_under_test = "Plasmodium falciparum"
measured_parameter = "Percent Effect"
reported_value = -70.5


Continue with the next compound.
I have this compound here, Cc1cc(C)c2cc(CNCc3ccc(C)o3)c3nn(C)c(=O)n3c2c1 , and I need its recorded Percent Effect.
62.16

* * *

Test system: Plasmodium falciparum
Test: Calibr Malaria Delayed Death Assay SOP
Assay type: functional, organism-based
Parameters: scale not given: in the data most compounds retested in dose-response had high values
Conditions: concentration 4.99e-06 (unit not given; other assays of the set use mol/L)
About 1,200 (3.2%) of roughly 38,000 compounds showed an effect of 50% or more. The median lay at about -58%. Shown is part of a subset that was picked to be rich in strong results.
measured.parameter: Percent Effect

[[record]]
compound = "COc1ncccc1C(=O)N1CC[C@H]2C[C@H](c3noc(C)n3)O[C@@H]2C1"
system_under_test = "Plasmodium falciparum"
reported_value = "-68.36%"

[[record]]
compound = "c1cc(-c2cn3nccc3nc2C2CCCCC2)nc(N2CCCC2)n1"
system_under_test = "Plasmodium falciparum"
reported_value = "-1.044%"

[[record]]
compound = "FC1(F)CCN(Cc2ccccn2)CC12CCN(c1cnccn1)C2.O=C(O)C(F)(F)F.O=C(O)C(F)(F)F.O=C(O)C(F)(F)F (stereo not given)"
system_under_test = "Plasmodium falciparum"
reported_value = "16.91%"

[[record]]
compound = "CN1CCN(c2nccc(-c3cncnc3C3CCCCC3)n2)CC1"
system_under_test = "Plasmodium falciparum"
reported_value = "60.54%"

[[record]]
compound = "CC(O)CN1CCc2onc(-c3ccccc3F)c2C1 (stereo not given)"
system_under_test = "Plasmodium falciparum"
reported_value = "-120.6%"

[[record]]
compound = "CCN1CCC(NC(=O)CN2CCCC(NS(C)(=O)=O)C2)CC1 (stereo not given)"
system_under_test = "Plasmodium falciparum"
reported_value = "-94.92%"


For every item below, please supply its Percent Effect.
1. CN1CCCN(c2nc(C3CCCC3)nc3c2cnn3C)CC1
2. COC[C@@]12CCO[C@@H]1CCN(C(=O)CCc1ccccc1Cl)C2
3. CCc1ncc2c(n1)CN(c1nccc(C3CCCC3)n1)C2

1. -58.12%
2. -39.1%
3. -48.7%

I have this compound here, Cc1nn(C)cc1-c1ccnc(N2CCCN(CC(C)C)CC2)n1 , and I need its recorded Percent Effect.
-23.38%

* * *

Exercise: for every item that follows, state its recorded Percent Effect.
Test system: Plasmodium falciparum
Assay: Calibr Malaria Delayed Death Assay SOP
Assay type: functional, organism-based
Set-up: scale not given: in the data most compounds retested in dose-response had high values
Conditions: concentration 4.99e-06 (unit not given; other assays of the set use mol/L)
About 1,200 (3.2%) of roughly 38,000 compounds showed an effect of 50% or more. The median lay at about -58%. The list comes from a sample in which strong results are over-represented; it also holds close analogues and randomly drawn compounds.
One number for each entry, in %.

// below: answered compounds
[[record]]
compound = "O=C(NCC1(O)CCC1)c1c(O)cc(Cl)cc1Cl"
reported_value = -101.6

[[record]]
compound = "Clc1snnc1CN1CCCCC1Cn1cccn1 (configuration not stated)"
reported_value = -105.5

[[record]]
compound = "CCc1nc(CN2CCCC(N(C)Cc3cnc(C)cn3)C2)no1 (configuration not stated)"
reported_value = -35.57


For every item below, please supply its Percent Effect.
1. Cc1nn(C)c(C)c1S(=O)(=O)NCC1(C(N)=O)CCOCC1
2. CC(=O)N1CCN(C[C@H]2CC[C@@H](Cc3ccc4ncccc4c3)O2)CC1

[-35.42, -19.65]

For every item below, please supply its Percent Effect.
1. Cc1ccoc1C(=O)NC1CCN(Cc2ccccc2F)CC1
2. Cc1nn(CC(=O)O)c(C)c1NS(=O)(=O)c1cc2ccccc2s1
3. Cc1cc(C)n(CC(C)NCCn2nc(C)c(Cl)c2C)n1 (configuration not stated)
4. CC(C)CNC(=O)c1cn(C)c(=O)c2ccccc12
5. CCOc1cccc(NC(=O)c2cc[nH]n2)n1

1. -117.1
2. -90.75
3. -54.04
4. -112.9
5. -28.36

For every item below, please supply its Percent Effect.
1. Cc1nn(C)c(C)c1CC(=O)N1CCCC1Cn1cccn1 (configuration not stated)
2. CN1CCN(C[C@H]2CC[C@@H](Cc3ccc(CN4CCCC4)cc3)O2)CC1

1: -102.7; 2: 35.77
